Target: T1, MPP2, Q14168
T1 sequence (Q14168 180-250, limits assumed, looked up): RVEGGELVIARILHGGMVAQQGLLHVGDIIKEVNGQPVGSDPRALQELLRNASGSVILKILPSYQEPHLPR
Assay: holdup assay
Design: key: below the threshold = too weak to quantify, mostly under pKd 3.1 to 4
Conditions: plain residues with an end cap or a label only (N-terminal biotin on a linker: ahx)
measured-metric: pKd

Consider the worked cases shown below.
{"columns": ["binder", "pKd"],
 "data": [
  ["NRKREIFSNF [NHERF2, Q15599]", "below the threshold"],
  ["RAVEEEESRF [PSCDBP, O60759]", "below the threshold"],
  ["LSDPSVSTVV [GRIN1, Q05586;Q05586-2]", "below the threshold"],
  ["HNAFLSVTTV [PDZRN4, Q6ZMN7]", "below the threshold"],
  ["PSASCAVTAA [PDLIM4, P50479;P50479-2]", "below the threshold"],
  ["GYDWGPATDL [TJP3, O95049]", "below the threshold"]
]}

Quick one: give me pKd for each item below, same order please.
1. RRRKRKRTYL [HPV49-L2, P36762]
2. TVICWPGSLV [LNX2, Q8N448]
3. ESLLLGPSNF [SHROOM4, Q9ULL8]
4. SDSSGQEYSL [KCTD3, Q9Y597]

1: 3.74; 2: 3.62; 3: below the threshold; 4: below the threshold
